B1: ZC3H15 (parent)
chain: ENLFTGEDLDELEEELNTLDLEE

Variants of: B1
Test: protein stability index of a GFP-peptide fusion (GPS, HEK-293T) (PSI 1-6); higher = more stable;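 further: lentivirally expressed fusions sorted by FACS into six bins by GFP to DsRed ratio, PSI derived from sequencing read proportions per bin multiplied by bin number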
Details: c terminus: native
Reported protein stability index values are given for each entry in this list.
Lab note: record the figure alone, no unit after it.

Reference set (2 entries):
changes | assay_endpoint | recorded_measurement
N17A | protein stability index | 4.7
L9H | protein stability index | 3.51

According to the records, this variant `D8V` displays protein stability index of 4.83

According to the records, this variant `E1V` displays protein stability index of 4.25
